FYI, the data here is from ChEMBL document CHEMBL1132913.

- Test Description: Partition coefficient (logP)
- Format: physicochemical
- Assay Setup: octanol/water
Measured Attribute: logP

INSERT INTO results (compound, result) VALUES
  ('c1ccc(CN2CCC3C(=C(c4ccccc4)c4ccccc43)C2)cc1 (stereo unspecified)', 7.03);

###

Overview of reported pIC50 across a group of compounds:
- Measurement Target: Histamine H1 receptor (Cavia porcellus, UniProt P31389)
- Sequence (P31389 whole entry): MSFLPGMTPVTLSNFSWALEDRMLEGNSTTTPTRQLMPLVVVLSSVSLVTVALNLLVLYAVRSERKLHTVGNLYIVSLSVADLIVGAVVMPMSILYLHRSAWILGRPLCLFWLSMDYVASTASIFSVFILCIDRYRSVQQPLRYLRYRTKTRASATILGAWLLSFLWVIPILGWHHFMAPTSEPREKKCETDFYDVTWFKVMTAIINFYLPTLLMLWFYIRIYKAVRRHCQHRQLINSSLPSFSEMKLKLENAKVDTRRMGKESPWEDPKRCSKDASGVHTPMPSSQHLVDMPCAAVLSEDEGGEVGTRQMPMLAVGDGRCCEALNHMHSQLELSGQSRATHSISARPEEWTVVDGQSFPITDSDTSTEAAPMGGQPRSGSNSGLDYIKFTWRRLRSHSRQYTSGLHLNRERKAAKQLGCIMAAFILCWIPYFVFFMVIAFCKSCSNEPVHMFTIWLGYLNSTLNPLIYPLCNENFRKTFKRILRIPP
- Test Description: In vitro antagonistic activity at the Histamine H1 receptor in guinea pig ileum
- Format: functional, tissue-based
pIC50: −log10 of the molar value.
Measured Attribute: pIC50

INSERT INTO measurements (compound, numeric_readout) VALUES
  ('CCN1CC[C@@](O)(c2ccccc2)[C@H](C(=O)c2ccccc2)C1', 7.64),
  ('CCN1CCC2=C(C1)C(c1ccccc1)c1ccccc12 (centres undefined)', 7.77),
  ('c1ccc(CN2CCC3C(=C(c4ccccc4)c4ccccc43)C2)cc1 (centres undefined)', 7.97),
  ('CN1CCC2C(=C(c3ccccc3)c3ccccc32)C1 (centres undefined)', 7.55),
  ('CN1CCC2=C(C1)C(c1ccccc1)c1ccccc12 (centres undefined) [PHENINDAMINE]', 7.44),
  ('C1=C2C(=C(c3ccccc3)c3ccccc32)CNC1', 7.28),
  ('CN1CC=C2C(=C(c3ccccc3)c3ccccc32)C1', 6.66),
  ('CN1CC[C@@](O)(c2ccccc2)[C@H](C(=O)c2ccccc2)C1', 7.59),
  ('c1ccc(CN2CCC3=C(C2)C(c2ccccc2)c2ccccc23)cc1 (centres undefined)', 6.33);
